In what follows, each item is paired with its IC50 for UniProt:P08581.
Sequence (P08581 25-1390): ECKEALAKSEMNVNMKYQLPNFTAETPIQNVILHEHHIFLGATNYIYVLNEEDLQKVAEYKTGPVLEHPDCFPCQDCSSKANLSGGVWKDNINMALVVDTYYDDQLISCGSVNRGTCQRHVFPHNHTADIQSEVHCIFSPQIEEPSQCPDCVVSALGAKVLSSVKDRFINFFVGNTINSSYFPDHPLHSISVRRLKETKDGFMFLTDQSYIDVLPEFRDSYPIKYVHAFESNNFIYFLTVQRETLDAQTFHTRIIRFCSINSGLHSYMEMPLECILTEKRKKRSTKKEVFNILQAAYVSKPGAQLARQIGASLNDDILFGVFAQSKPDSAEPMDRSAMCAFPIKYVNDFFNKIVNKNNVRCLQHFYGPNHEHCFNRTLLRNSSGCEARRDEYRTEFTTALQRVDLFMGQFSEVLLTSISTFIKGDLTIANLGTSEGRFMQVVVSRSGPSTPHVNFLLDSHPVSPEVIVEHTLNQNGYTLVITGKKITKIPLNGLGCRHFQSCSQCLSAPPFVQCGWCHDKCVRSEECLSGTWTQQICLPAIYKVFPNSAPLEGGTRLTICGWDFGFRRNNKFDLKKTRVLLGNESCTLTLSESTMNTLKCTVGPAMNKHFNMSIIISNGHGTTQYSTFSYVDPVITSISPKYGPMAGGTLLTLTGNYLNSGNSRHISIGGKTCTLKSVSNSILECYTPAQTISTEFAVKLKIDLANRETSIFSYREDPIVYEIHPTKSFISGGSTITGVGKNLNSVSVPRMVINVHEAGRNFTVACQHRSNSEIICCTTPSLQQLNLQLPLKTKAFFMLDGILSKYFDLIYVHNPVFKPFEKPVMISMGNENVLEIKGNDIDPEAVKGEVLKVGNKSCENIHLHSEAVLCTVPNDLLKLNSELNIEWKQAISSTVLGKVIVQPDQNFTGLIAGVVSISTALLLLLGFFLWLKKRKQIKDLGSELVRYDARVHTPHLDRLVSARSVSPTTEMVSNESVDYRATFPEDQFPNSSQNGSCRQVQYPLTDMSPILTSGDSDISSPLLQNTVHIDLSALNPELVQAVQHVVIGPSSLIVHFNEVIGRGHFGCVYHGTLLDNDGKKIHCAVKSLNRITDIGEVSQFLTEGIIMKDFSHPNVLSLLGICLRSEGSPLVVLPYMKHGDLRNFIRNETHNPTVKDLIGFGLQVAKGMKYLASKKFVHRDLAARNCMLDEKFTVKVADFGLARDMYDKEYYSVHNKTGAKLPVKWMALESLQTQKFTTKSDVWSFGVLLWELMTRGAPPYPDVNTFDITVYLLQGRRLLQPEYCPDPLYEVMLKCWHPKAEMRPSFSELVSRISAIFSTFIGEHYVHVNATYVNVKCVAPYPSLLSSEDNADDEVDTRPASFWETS

Sample answers from the record:
{"columns": ["compound", "target", "IC50"],
 "data": [
  ["CC(C)n1c(=O)[nH]c2nccc(Oc3ccc(NC(=O)c4cnn(-c5ccccn5)c4C(F)(F)F)cc3F)c21", "UniProt:P08581", "> 5 µM"],
  ["O=C(Nc1ccc(Oc2ccnc3[nH]c(=O)n(C4CCOC4)c23)c(F)c1)c1cnn(-c2ncccc2F)c1C(F)(F)F (stereo not shown)", "UniProt:P08581", "0.5 to 5 µM"],
  ["CCc1c(C(=O)Nc2ccc(Oc3ccnc4[nH]c(=O)n(C(C)C)c34)c(F)c2)cnn1-c1cncnc1", "UniProt:P08581", "> 5 µM"]
]}

# context switch: different compound, same IC50
Item Cc1cnc(-n2ncc(C(=O)Nc3ccc(Oc4ccnc5[nH]c(=O)n(C(C)C)c45)c(F)c3)c2C(F)(F)F)nc1 has what recorded IC50?
0.5 to 5 µM

* * *

In what follows, each item is paired with its pIC50 for RON (Homo sapiens, UniProt Q04912).
pIC50: −log10 of the molar value.

Sample answers from the record:
{"columns": ["compound", "target", "pIC50"],
 "data": [
  ["Cc1ccc(-n2ncc(C(=O)Nc3ccc(Oc4ccnc5[nH]c(=O)n(C(C)C)c45)c(F)c3)c2C(F)(F)F)nc1 [Example 9]", "RON (Homo sapiens, UniProt Q04912)", "6.30 to 7.30"],
  ["O=C(Nc1ccc(Oc2ccnc3[nH]c(=O)n(C4CCOC4)c23)c(F)c1)c1cnn(-c2ncccc2F)c1C(F)(F)F (centres unmarked) [Example 40]", "RON (Homo sapiens, UniProt Q04912)", "> 7.30"],
  ["CC(C)n1c(=O)[nH]c2nccc(Oc3ccc(NC(=O)c4cnn(-c5ccc(Cl)cn5)c4C(F)(F)F)cc3F)c21 [Example 11]", "RON (Homo sapiens, UniProt Q04912)", "6.30 to 7.30"],
  ["Cc1ccnc(-n2ncc(C(=O)Nc3ccc(Oc4ccnc5[nH]c(=O)n(C(C)C)c45)c(F)c3)c2C(F)(F)F)n1 [Example 26]", "RON (Homo sapiens, UniProt Q04912)", "> 7.30"],
  ["COc1cccnc1-n1ncc(C(=O)Nc2ccc(Oc3ccnc4[nH]c(=O)n(C(C)C)c34)c(F)c2)c1C(F)(F)F [Example 28]", "RON (Homo sapiens, UniProt Q04912)", "> 7.30"]
]}

Item CC(C)n1c(=O)[nH]c2nccc(Oc3ccc(NC(=O)c4cnn(-c5ccncc5)c4C(F)(F)F)cc3F)c21 [Example 24] has what recorded pIC50?
> 7.30

// same read-out, input: CC(C)n1c(=O)[nH]c2nccc(Oc3ccc(NC(=O)c4cnn(-c5cc(C(F)(F)F)ccn5)c4C(F)(F)F)cc3F)c21 [Example 17]
6.30 to 7.30

// same read-out, input: CC(C)n1c(=O)[nH]c2nccc(Oc3ccc(NC(=O)c4cnn(-c5ncccc5F)c4C(F)(F)F)cc3F)c21 [Example 7]
> 7.30

* * *

pIC50: −log10 of the molar value.
In what follows, each item is paired with its pIC50 for UniProt:P08581.

{"columns": ["smiles-structure", "pIC50"],
 "data": [
  ["CCc1c(C(=O)Nc2ccc(Oc3ccnc4[nH]c(=O)[nH]c34)c(F)c2)cnn1-c1cncnc1", "< 5.30"],
  ["CC(C)n1c(=O)[nH]c2nccc(Oc3ccc(NC(=O)c4cnn(-c5nccc6ccccc56)c4C(F)(F)F)cc3F)c21", "5.30 to 6.30"],
  ["CC(C)n1c(=O)[nH]c2nccc(Oc3ccc(NC(=O)c4cnn(-c5ccc(C(F)(F)F)cn5)c4C(F)(F)F)cc3F)c21", "< 5.30"],
  ["CC(C)n1c(=O)[nH]c2nccc(Oc3ccc(NC(=O)c4cnn(-c5ncccc5Br)c4C(F)(F)F)cc3F)c21", "5.30 to 6.30"]
]}

# context switch: different compound, same pIC50
Item CC(C)n1c(=O)[nH]c2nccc(Oc3ccc(NC(=O)c4cnn(-c5ncccc5C(F)(F)F)c4C(F)(F)F)cc3F)c21 has what recorded pIC50?
5.30 to 6.30
